Assay: Binding to human plasma proteins
Assay type: in vitro ADME
Details: human plasma, 37 °C, incubation time 120 min, n = 2; read-out: Protein binding (%) (converted)
Readout kind: fraction unbound at 120 min, 2.25 kBq/100 µL

compound="O=C(O)CC[C@H](NC(=O)N[C@@H](CCCCNC(=O)[C@H](Cc1ccc2ccccc2c1)NC(=O)[C@H]1CC[C@H](CNC(=O)CN2CCN(CC(=O)O)CCN(CC(=O)O)CCN(CC(=O)O)CC2)CC1)C(=O)O)C(=O)O [PSMA-617, Glu-urea-Lys-2-Nal-L-Ala-CHX-DOTA, reference compound]" test_value=0.46

---

# Stability in Physiological pH (%) listing for each entry below
Assay: Radiochemical stability in physiological pH water environment
Format: physicochemical
Settings: radiochemical purity, pH 7, 37 °C, incubation time 30 min, n = 1
Readout kind: Stability in Physiological pH (%)

compound="O=C([O-])CN1CCN(CC(=O)[O-])CCN(CC(=O)N[C@H]2CC[C@H](NC(=O)[C@H](Cc3ccc4ccccc4c3)NC(=O)CC[C@H](NC(=O)N[C@@H](CCC(=O)O)C(=O)O)C(=O)O)CC2)CCN(CC(=O)[O-])CC1.[68Ga+3] [[^68Ga]Ga-P16]" readout_kind="Stability in Physiological pH (%)" unit_string=% test_value=99.1
compound="O=C([O-])CN1CCN(CC(=O)[O-])CCN(CC(=O)NCC2CCC(C(=O)NC(Cc3ccc4ccccc4c3)C(=O)NCCCCC(NC(=O)NC(CCC(=O)O)C(=O)O)C(=O)O)CC2)CCN(CC(=O)[O-])CC1.[68Ga+3] (stereo not shown) [[^68Ga]Ga-PSMA-617, reference compound]" readout_kind="Stability in Physiological pH (%)" unit_string=% test_value=98.5
compound="O=C([O-])CN1CCN(CC(=O)[O-])CCN(CC(=O)N[C@H]2CC[C@H](NC(=O)[C@@H](Cc3ccc4ccccc4c3)NC(=O)CC[C@H](NC(=O)N[C@@H](CCC(=O)O)C(=O)O)C(=O)O)CC2)CCN(CC(=O)[O-])CC1.[68Ga+3] [[^68Ga]Ga-P15]" readout_kind="Stability in Physiological pH (%)" unit_string=% test_value=98.8
compound="O=C([O-])CN1CCN(CC(=O)[O-])CCN(CC(=O)NCc2ccc(C(=O)N[C@H](C(=O)NCCCC[C@H](NC(=O)N[C@@H](CCC(=O)O)C(=O)O)C(=O)O)C(c3ccccc3)c3ccccc3)cc2)CCN(CC(=O)[O-])CC1.[68Ga+3] [[^68Ga]Ga-P19]" readout_kind="Stability in Physiological pH (%)" unit_string=% test_value=99.5

---

# Stability in Physiological pH (%) listing for each entry below
Test: Radiochemical stability in physiological pH water environment
Assay type: physicochemical
Details: radiochemical purity, pH 7, 37 °C, incubation time 120 min, n = 1
Readout kind: Stability in Physiological pH (%)

compound="O=C([O-])CN1CCN(CC(=O)[O-])CCN(CC(=O)NCc2ccc(C(=O)N[C@H](C(=O)NCCCC[C@H](NC(=O)N[C@@H](CCC(=O)O)C(=O)O)C(=O)O)C(c3ccccc3)c3ccccc3)cc2)CCN(CC(=O)[O-])CC1.[68Ga+3] [[^68Ga]Ga-P19]" test_value=99.6%
compound="O=C([O-])CN1CCN(CC(=O)[O-])CCN(CC(=O)NCC2CCC(C(=O)NC(Cc3ccc4ccccc4c3)C(=O)NCCCCC(NC(=O)NC(CCC(=O)O)C(=O)O)C(=O)O)CC2)CCN(CC(=O)[O-])CC1.[68Ga+3] (stereo not shown) [[^68Ga]Ga-PSMA-617, reference compound]" test_value=98.5%
compound="O=C([O-])CN1CCN(CC(=O)[O-])CCN(CC(=O)N[C@H]2CC[C@H](NC(=O)[C@H](Cc3ccc4ccccc4c3)NC(=O)CC[C@H](NC(=O)N[C@@H](CCC(=O)O)C(=O)O)C(=O)O)CC2)CCN(CC(=O)[O-])CC1.[68Ga+3] [[^68Ga]Ga-P16]" test_value=99.3%
compound="O=C([O-])CN1CCN(CC(=O)[O-])CCN(CC(=O)N[C@H]2CC[C@H](NC(=O)[C@@H](Cc3ccc4ccccc4c3)NC(=O)CC[C@H](NC(=O)N[C@@H](CCC(=O)O)C(=O)O)C(=O)O)CC2)CCN(CC(=O)[O-])CC1.[68Ga+3] [[^68Ga]Ga-P15]" test_value=99.2%
